Where do these numbers come from? They come from patent US20240208956A1.

- measured.on: HDAC6 human recombinant (Homo sapiens (Human))
- Sequence (Q9UBN7 whole entry): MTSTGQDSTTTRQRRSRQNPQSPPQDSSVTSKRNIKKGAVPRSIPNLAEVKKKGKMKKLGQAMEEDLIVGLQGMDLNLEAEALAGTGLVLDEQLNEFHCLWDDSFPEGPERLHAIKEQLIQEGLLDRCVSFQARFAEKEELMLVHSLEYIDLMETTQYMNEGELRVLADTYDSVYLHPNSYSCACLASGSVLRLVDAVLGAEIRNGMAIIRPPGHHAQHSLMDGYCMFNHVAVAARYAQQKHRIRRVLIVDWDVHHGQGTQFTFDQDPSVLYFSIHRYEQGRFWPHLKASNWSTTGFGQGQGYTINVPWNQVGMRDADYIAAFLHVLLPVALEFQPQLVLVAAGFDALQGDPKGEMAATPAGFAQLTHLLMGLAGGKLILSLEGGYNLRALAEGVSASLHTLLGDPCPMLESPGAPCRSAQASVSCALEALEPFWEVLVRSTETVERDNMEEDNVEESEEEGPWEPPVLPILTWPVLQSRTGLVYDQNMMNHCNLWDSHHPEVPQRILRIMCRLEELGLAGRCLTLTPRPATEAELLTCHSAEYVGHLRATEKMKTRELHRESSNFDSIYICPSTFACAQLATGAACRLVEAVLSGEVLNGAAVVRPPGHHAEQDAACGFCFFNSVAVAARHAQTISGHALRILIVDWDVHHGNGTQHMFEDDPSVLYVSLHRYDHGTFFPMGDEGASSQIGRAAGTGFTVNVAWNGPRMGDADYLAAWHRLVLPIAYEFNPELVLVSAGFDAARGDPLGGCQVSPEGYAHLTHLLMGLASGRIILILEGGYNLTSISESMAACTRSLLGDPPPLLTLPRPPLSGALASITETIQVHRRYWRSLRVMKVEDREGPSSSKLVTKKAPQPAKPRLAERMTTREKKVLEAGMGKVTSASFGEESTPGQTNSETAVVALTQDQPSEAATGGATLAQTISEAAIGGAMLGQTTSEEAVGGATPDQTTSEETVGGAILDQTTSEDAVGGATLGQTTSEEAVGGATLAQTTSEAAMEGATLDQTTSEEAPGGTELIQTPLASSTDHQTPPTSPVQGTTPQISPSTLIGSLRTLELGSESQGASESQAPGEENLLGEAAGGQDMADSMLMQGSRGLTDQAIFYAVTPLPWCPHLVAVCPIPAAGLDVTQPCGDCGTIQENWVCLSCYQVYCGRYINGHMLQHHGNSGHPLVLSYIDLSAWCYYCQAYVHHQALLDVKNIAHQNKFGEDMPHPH
- assay.info: HDAC enzyme activity inhibition (in vitro), HDAC6 fluorimetric assay
- experimental.conditions: samples at 0.1-1000 nM; 37° C. 60 minutes; fluorescence Ex 390 nm, Em 460 nm
Quick rule for you: IC50 under 50 nM gets 1, anything else gets -1.

CN1CCC2(CC1)CC(C(=S)N(Cc1ccc(-c3nnc(C(F)F)o3)cc1F)c1ccccc1)C2: -1
Fc1ccc(N(Cc2ccc(-c3nnc(C(F)F)o3)cc2F)C(=S)N2CC3(C2)CN(C2COC2)C3)cc1: -1
CN1CC2(C1)CN(C(=S)N(Cc1ccc(-c3nnc(C(F)F)o3)cc1F)c1ccc(Cl)c(Cl)c1)C2: -1
CC(C)N1CC2(CN(C(=S)N(Cc3ccc(-c4nnc(C(F)F)o4)cc3)c3ccc(F)c(F)c3)C2)C1: 1
CC(C)N1CC2(CN(C(=S)N(Cc3ccc(-c4nnc(C(F)F)o4)cc3)c3ccc(F)c(Cl)c3)C2)C1: -1
CC(C)N1C[C@@H]2C[C@H]1CN2C(=S)N(Cc1ccc(-c2nnc(C(F)F)o2)cc1F)c1ccc(F)cc1: -1

Exam item: Does the reported IC50 of the following compound sit strictly below 50 nM? Fc1cccc(N(Cc2ccc(-c3nnc(C(F)F)o3)cc2)C(=S)N2CC3(C2)CN(C2COC2)C3)c1
Marked response: -1

Exam item: Field: below-cutoff. Rule: recorded IC50 strictly less than 50 nM. Subject: FC(F)c1nnc(-c2ccc(CN(C(=S)N3CCOCC3)c3ccccc3)cc2)o1
Marked response: 1
